Ref: patent US6184238A

# tgt: Lipoxygenase (Rattus norvegicus)
# Construct: Using rat polymorphonuclear leukocytes; endogenous in cells; host or cells: casein-elicited peritoneal polymorphonuclear leukocytes of male Wistar rats
# Sequence (P12527 1-673): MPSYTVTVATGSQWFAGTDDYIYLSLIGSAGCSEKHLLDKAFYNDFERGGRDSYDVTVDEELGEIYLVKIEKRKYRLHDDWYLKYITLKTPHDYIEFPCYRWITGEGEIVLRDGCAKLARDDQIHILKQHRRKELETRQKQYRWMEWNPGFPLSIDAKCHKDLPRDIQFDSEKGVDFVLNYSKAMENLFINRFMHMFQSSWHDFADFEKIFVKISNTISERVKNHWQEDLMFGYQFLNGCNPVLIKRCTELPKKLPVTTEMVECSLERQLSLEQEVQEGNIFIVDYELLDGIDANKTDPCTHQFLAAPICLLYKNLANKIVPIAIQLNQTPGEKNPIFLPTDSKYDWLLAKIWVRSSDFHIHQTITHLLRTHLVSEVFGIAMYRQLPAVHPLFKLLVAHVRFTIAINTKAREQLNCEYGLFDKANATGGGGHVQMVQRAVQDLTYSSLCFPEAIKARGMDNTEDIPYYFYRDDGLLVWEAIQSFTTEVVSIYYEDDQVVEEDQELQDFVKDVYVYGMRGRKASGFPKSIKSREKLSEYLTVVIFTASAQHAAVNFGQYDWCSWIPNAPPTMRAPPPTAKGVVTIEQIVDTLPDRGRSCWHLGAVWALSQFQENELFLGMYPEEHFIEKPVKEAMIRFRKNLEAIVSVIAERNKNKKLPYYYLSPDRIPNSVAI
# protocol-summary: Lipoxygenase inhibitory activity (leukotriene B4 production, rat polymorphonuclear leukocytes)
# Format: cell-based
# measurement-conditions: rat polymorphonuclear leukocytes; calcium ionophore A-23187; 37° C.; read-out: LTBI IC50 (inhibition of leukotriene B4 production)
Listed next: entries and their corresponding pIC50.
Would you please state pIC50, meaning minus log10 of the concentration in mol/L, as a bare number?

NC(=O)N(O)Cc1ccc(Cc2cn(Cc3cccnc3)c3ccccc23)cc1 [Compound 27]
7.00
NC(=O)N(O)CCn1cc(-c2cccnc2)c2ccccc21 [Compound 19]
6.52
NC(=O)N(O)CCCCCCCCn1c(-c2cccnc2)cc2ccccc21 [Compound 6]
8.00
CC(c1ccc2c(c1)c(-c1cccnc1)cn2C)N(O)C(N)=O (stereo not drawn) [Compound 45]
5.60
NC(=O)N(O)CCCCCCCCCCn1c(-c2cccnc2)cc2ccccc21 [Compound 11]
8.05

Form: molecule = NC(=O)N(O)CCCCCCn1cc(-c2cccnc2)c2ccccc21 [Compound 21] ; pIC50 = 7.40

Form: molecule = Cc1c(-c2cccnc2)n(C)c2ccc(C(C)N(O)C(N)=O)cc12 (stereo not drawn) [Compound 41] ; pIC50 = 5.70

Form: molecule = Cc1c(-c2cccnc2)n(C)c2ccc(CN(O)C(N)=O)cc12 [Compound 35] ; pIC50 = 5.70

Form: molecule = Cc1c(-c2cccnc2)n(CCCCCCN(O)C(N)=O)c2ccc(Cl)cc12 [Compound 10] ; pIC50 = 7.52
